- test target: Corticotropin-releasing factor receptor 2/Corticotropin-releasing factor-binding protein (Homo sapiens, UniProt P24387+Q13324)
- Sequence (Q13324 whole entry): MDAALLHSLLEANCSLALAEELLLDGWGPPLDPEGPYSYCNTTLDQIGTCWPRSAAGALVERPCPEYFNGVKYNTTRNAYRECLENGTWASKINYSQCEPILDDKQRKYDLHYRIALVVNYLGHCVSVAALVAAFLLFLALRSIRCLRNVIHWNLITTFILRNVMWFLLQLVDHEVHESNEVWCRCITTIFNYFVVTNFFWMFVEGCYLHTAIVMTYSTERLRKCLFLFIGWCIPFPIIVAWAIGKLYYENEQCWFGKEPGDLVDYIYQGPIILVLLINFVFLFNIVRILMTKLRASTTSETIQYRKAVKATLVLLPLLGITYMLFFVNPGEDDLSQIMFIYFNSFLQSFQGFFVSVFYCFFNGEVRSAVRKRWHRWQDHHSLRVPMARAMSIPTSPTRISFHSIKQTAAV
- Sequence (P24387 whole entry): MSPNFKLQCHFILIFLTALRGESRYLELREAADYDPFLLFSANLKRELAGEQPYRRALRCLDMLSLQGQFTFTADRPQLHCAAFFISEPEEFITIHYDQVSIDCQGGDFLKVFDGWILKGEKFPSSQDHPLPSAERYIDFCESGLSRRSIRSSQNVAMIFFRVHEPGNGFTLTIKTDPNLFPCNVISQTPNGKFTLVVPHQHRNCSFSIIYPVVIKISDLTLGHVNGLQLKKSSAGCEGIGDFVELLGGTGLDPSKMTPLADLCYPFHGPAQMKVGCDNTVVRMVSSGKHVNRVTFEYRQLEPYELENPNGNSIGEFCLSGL
- test summary: activators of CRF receptor 2 with binding protein – uHTS hits, confirmation (AID 602473)
- Assay type: functional
- condition parameters: read-out: EC50_Mean
Activity calls are given as the source filed them.
Select the matching outcome among active, inactive

# count of solved cases: 5
1) Cc1cc(C)c(C)c(S(=O)(=O)Nc2ccccc2C(=O)O)c1C :: inactive
2) COC(=O)c1cc(OC)c(OC)cc1NC(=O)c1ccco1 :: inactive
3) CC1(C)Cc2c(sc3[nH]c(=O)n(CC(=O)NCC4CCCO4)c(=O)c23)CO1 (stereo unspecified) :: inactive
4) Cc1ccc(C(C)C)c2c1C(c1ccc3c(c1)OCO3)CC(=O)O2 (stereo unspecified) :: active
5) COc1ccc(CN(CCc2c[nH]c3ccccc23)Cc2ccc(OC)cc2)cc1 :: inactive

### Prompt // outcome(item) with item = COc1ccccc1N1CCN(CC(=O)Nc2c(C)n[nH]c2C)CC1
### Response inactive

###

- test target: Paired box protein Pax-8 (Homo sapiens, UniProt Q06710)
- Sequence (Q06710 whole entry): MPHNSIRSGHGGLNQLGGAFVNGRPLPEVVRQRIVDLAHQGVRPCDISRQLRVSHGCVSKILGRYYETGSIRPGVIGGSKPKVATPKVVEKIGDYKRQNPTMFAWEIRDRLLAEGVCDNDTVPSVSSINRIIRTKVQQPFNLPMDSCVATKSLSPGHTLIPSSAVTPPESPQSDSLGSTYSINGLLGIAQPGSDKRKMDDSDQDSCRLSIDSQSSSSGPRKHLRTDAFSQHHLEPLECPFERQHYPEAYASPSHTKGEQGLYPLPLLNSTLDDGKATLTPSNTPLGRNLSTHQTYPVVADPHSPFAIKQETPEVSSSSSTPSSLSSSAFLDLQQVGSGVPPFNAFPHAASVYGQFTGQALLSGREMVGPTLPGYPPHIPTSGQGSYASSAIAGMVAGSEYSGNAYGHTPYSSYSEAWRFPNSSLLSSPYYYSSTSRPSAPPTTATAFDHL
- test summary: PAX8 transcriptional activity inhibition in RMG-I – RMG-I cells, luciferase, cherry-pick, dose response (AID 687027);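 also: luciferase reporter driven by Pax8 target thyroperoxidase promoter measured by SteadyGlo luminescence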
- Assay type: functional, cell-based
Activity calls are given as the source filed them.
# AC50 per entry

Here are 3 compounds together with their reported answers.
1. O=C(NCc1cccnc1)/C(=C\c1ccc(-c2ccc(Cl)c(Cl)c2)o1)S(=O)(=O)c1ccccc1 :: 4.66 µM (active)
2. O=C(Nc1ccc(C(F)(F)F)cc1)N1C[C@@H]2N[C@H](C1)[C@@H]2c1ccc(/C=C/c2ccccc2)cc1 :: 21.7 µM (active)
3. C[C@H]1CN([C@@H](C)CO)S(=O)(=O)c2ccc(-c3ccc(C#N)cc3)cc2O[C@@H]1CN(C)Cc1cccc(F)c1 :: 8.67 µM (active)

# context switch: different compound, same AC50
### Prompt Consider the compound shown here: CC1=C(O)C(=O)C=C2C1=CC=C1C2(C)CCC2(C)C3CC(C)(C(=O)O)CCC3(C)CCC12C (centres undefined) What is its recorded AC50?
### Response 2.41 µM (active)

###

# EC50 per entry
- test target: Luciferin 4-monooxygenase (Photinus pyralis, UniProt P08659)
- Sequence (P08659 whole entry): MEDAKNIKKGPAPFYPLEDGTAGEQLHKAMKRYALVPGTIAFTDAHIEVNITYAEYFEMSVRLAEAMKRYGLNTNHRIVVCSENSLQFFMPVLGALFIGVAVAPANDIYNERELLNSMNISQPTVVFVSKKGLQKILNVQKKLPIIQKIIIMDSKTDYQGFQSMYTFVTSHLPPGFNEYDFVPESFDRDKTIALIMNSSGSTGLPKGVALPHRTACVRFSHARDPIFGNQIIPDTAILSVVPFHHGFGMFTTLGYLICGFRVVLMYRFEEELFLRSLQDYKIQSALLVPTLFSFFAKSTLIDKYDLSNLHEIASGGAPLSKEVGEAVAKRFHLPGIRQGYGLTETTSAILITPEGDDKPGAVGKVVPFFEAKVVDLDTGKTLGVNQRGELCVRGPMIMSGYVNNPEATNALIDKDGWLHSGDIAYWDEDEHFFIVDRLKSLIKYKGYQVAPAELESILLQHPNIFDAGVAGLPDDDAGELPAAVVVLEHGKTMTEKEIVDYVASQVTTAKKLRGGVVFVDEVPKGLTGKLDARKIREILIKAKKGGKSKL
- test summary: Counter Screen for Luciferase-based Assay Positives. [Related pubchem assays: 620, 618, 411 ]
The source made the active and inactive calls.

1) CC(C)(C)c1ccc(OCC(O)CSc2nnc[nH]2)cc1 (stereo not drawn) :: 1.29 µM (active)
2) Brc1ccccc1-c1nc(-c2ccccc2)no1 :: 5.42 µM (active)

### Prompt Consider the compound shown here: Cc1cccc(C(=O)N2CCN(C(=O)c3cccc(C)c3)C(C)C2)c1 (stereo not drawn) What is its recorded EC50?
### Response 10.6 µM (active)

###

- test target: Fatty acid synthase (Homo sapiens, UniProt P49327)
- Sequence (P49327 whole entry): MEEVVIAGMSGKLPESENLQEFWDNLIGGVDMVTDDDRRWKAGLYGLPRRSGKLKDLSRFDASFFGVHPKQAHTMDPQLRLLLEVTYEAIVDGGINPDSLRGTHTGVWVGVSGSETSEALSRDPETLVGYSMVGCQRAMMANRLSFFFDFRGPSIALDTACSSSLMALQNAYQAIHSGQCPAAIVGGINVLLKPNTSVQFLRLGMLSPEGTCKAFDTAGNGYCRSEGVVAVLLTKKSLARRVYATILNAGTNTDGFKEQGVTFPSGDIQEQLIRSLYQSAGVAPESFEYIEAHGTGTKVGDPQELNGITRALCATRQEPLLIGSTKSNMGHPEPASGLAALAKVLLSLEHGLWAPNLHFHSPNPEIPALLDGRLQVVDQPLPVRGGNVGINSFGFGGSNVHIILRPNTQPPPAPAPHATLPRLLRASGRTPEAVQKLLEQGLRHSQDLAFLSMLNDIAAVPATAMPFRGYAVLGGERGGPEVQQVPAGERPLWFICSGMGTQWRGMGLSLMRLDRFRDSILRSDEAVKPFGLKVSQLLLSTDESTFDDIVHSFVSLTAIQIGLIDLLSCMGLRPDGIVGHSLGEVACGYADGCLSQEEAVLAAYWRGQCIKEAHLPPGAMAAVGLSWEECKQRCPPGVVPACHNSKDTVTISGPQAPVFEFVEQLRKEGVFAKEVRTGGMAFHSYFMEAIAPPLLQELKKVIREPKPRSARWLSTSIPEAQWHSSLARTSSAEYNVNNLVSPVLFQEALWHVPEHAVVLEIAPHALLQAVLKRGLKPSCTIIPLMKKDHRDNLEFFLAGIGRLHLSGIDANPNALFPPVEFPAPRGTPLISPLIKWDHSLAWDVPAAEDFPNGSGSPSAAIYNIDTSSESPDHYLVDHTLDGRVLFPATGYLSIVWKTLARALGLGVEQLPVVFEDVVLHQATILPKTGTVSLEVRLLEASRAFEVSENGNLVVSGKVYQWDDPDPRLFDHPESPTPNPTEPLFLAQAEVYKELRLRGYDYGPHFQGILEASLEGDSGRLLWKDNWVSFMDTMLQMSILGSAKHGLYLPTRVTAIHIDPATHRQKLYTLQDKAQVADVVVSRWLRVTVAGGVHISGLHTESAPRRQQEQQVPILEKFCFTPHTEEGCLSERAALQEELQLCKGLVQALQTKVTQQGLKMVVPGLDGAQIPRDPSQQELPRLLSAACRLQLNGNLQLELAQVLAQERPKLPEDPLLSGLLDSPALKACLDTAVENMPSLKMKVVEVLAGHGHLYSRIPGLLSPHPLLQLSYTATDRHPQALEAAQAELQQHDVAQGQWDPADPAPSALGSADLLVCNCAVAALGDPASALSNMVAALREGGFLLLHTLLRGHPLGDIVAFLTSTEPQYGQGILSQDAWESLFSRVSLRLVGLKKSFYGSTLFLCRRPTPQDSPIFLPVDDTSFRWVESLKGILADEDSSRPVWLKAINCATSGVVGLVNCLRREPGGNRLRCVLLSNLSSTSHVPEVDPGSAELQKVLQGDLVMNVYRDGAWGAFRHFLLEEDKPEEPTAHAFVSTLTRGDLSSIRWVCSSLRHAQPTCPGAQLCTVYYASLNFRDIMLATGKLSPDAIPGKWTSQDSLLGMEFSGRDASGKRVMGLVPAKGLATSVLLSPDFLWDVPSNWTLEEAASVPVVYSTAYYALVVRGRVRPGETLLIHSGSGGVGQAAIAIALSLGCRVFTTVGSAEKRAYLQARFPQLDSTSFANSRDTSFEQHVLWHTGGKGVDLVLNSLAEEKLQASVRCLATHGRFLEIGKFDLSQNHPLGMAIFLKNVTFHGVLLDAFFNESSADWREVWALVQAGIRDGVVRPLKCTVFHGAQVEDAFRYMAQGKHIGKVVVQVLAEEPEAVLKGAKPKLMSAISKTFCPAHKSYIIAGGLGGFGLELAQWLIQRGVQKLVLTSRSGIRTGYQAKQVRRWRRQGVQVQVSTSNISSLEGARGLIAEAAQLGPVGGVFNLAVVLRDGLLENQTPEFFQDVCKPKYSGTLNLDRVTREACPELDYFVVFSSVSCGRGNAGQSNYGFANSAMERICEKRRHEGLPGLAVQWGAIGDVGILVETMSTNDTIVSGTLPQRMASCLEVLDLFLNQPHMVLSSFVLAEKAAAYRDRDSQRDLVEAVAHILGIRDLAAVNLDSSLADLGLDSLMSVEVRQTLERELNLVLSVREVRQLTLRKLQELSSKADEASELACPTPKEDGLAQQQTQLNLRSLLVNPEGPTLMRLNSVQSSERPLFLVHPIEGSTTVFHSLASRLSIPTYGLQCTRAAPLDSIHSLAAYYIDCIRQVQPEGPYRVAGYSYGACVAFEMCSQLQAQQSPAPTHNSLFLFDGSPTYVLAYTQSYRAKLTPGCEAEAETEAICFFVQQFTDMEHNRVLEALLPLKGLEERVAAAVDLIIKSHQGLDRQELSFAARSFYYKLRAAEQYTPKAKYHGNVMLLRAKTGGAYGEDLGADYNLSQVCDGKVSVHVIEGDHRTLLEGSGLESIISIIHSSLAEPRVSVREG
- test summary: inhibition of human FAS-TE enzyme activity – biochemical, kinetic fluorescence intensity, dose response (AID 624326);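 also: rate of fluorescence rise from hydrolysis of a fluorogenic O-methyl fluorescein ester substrate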
- Type: functional
The source made the active and inactive calls.
# IC50 per entry

Here are 4 molecules together with their reported answers.
1. O=C(O)c1cc(NN=Nc2ccc(Br)cc2)cc([N+](=O)[O-])c1 :: 6.81 µM (active)
2. CCN(C(=O)CSc1ncnc2c1cnn2-c1ccccc1)C1CCS(=O)(=O)C1 (stereo not given) :: 4.94 µM (active)
3. Cc1cccc(COC[C@H](CC(C)C)N2CCN(C(=O)c3ccc(C(C)(C)C)cc3)CCC2=O)c1 :: 7.54 µM (active)
4. O=S(=O)(c1ccccc1)c1nnn2c1nc(NC1CCN(Cc3ccccc3)CC1)c1ccccc12 :: 0.793 µM (active)

# context switch: different molecule, same IC50
### Prompt For Fatty acid synthase (Homo sapiens, UniProt P49327), provide IC50 of O=C(OCC(=O)N1CCc2ccccc2C1)c1cccc([N+](=O)[O-])c1 please.
### Response 10.9 µM (active)
